Where do these numbers come from? They come from patent US20200325187A1.

- Target entity: hVEGF-A (human, UniProt P15692-4 27-191, limits assumed)
- Test: cell-based or functional assay
Experimental readout: Cellular IC50 (nM)
Give bare numbers, in nM.

[
  {
    "Binder": "GCNIMLPFWGCGLDYDCLAGCVCQYYQSCG (designed binder) [VEGF_CKP9.54.2]",
    "Test value": 4.3
  },
  {
    "Binder": "GCDVMQPYWGCGESLSCLAGCVCHWYNSCG (designed binder, also called L2.9.63.69) [VEGF_CKP9.63.69]",
    "Test value": 26.4
  },
  {
    "Binder": "GCNIMLPFWGCGPDLQCLAGCVCQYYQSCG (designed binder) [VEGF_CKP9.54.59]",
    "Test value": 3.06
  },
  {
    "Binder": "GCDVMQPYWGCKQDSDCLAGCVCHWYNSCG (designed binder, also called EM63) [VEGF_CKP9.63]",
    "Test value": 140
  },
  {
    "Binder": "GCDVMQPYWGCGRDMDCLAGCVCHWYNSCG (designed binder, also called L2.9.63.27) [VEGF_CKP9.63.27]",
    "Test value": 5.28
  },
  {
    "Binder": "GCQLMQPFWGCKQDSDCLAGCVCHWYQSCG (designed binder, also called E9) [VEGF_CKP9]",
    "Test value": 11700
  }
]

Moving on to the next binder.
Challenge: Please give the measured Cellular IC50 for this binder: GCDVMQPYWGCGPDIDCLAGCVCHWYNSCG (designed binder, also called L2.9.63.12) [VEGF_CKP9.63.12]
Response given: 1.83
